# TARGET_OR_TEST_SYSTEM: mitogen-activated protein kinase-activated protein kinase 2 (human MK2) (human, UniProt P49137 46-400, limits assumed)
# Sequence (P49137 46-400 limits assumed): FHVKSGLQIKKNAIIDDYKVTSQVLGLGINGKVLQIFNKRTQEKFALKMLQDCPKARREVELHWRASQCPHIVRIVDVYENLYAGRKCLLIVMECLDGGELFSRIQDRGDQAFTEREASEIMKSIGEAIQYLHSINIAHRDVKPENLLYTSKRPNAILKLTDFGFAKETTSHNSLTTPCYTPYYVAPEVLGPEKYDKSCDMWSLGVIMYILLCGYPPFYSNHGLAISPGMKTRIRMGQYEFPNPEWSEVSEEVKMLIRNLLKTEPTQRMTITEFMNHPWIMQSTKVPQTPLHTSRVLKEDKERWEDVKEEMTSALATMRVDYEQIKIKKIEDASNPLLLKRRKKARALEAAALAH
# TEST_DESCRIPTION: cell-based or functional assay
Non-standard residues stand in square brackets, D forms with d. No end group written: not given here.
Class t: % change in MK2 reaction velocity vs unsubstituted …, peptide at 100 µM at least 300%. Class f: % change in MK2 reaction velocity vs unsubstituted …, peptide at 100 µM below 300%.

BINDER	GROUP_LABEL
KALNRQLGVAA [Alanine-substitution peptide printed as KALNRQLGVAA (Table 1, fourth alanine row)]	f
KALNRQLGVA	f
KALNR[dQ]LGVAA-NH2 (N-terminus assumed; SMILES CC(C)C[C@H](NC(=O)[C@H](C)NC(=O)[C@@H](N)CCCCN)C(=O)N[C@@H](CC(N)=O)C(=O)N[C@@H](CCCNC(=N)N)C(=O)N[C@H](CCC(N)=O)C(=O)N[C@@H](CC(C)C)C(=O)NCC(=O)N[C@H](C(=O)N[C@@H](C)C(=O)N[C@@H](C)C(N)=O)C(C)C) [KALNRdQLGVAA]	f
KALNRQAGVAA	f
WLRRIKA [WLRRIKA (non-functional)]	t
